src = patent US10570117B2

Assay: Solubility in gastric juice or intestinal juice model fluid (precipitation method using DMSO)
Type: physicochemical
Settings: pH 6.8, kinetic from dmso stock, 2nd fluid for Disintegration Test of Japanese Pharmacopoeia (pH: 6.8), room temperature, read-out: Solubility (μg/mL) 2nd fluid
Method: Solubility in Gastric Juice or Intestinal Juice Model Fluid Measurement was performed by a precipitation method using DMSO. […] Subsequently, insoluble substances in each mixture were removed by filtration, and the UV absorption of each filtrate was measured. […]
RECORDED ENDPOINT: solubility at 24 h (µg/mL)

{"columns": ["COMPOUND", "solubility at 24 h (µg/mL)"],
 "data": [
  ["COc1cc(OCc2ncccc2C(F)(F)F)ccc1-c1[nH]c(-c2ccc(Cl)nc2)nc1Br [Example 253]", 1],
  ["COc1cc(-c2c[nH]c(C3CCCCC3)n2)cc(OC)c1OCc1ccc(C(F)(F)F)cn1 [Example 76]", 1]
]}
